target: UniProtKB P04585; experiment: Reverse Transcriptase (RT) Assay, wild type; format: biochemical, HIV-1; set-up: Heterodimeric RT was eluted using a descending gradient; made in house; host or cells: E. coli (clone pKRT2, obtained from Yale University); conditions: read-out: RT (WT) Assay % inh. (1 μM)
Catalogue of inhibition at 1 µM readings, one per entry.
Just the number in %, nothing appended.

CCN1c2ncc(CCc3ccncc3)cc2C(=O)N(C)c2ccc(C#N)nc21 = 82
CCN1c2ncc(CCc3ccncc3)cc2C(=O)N(C)c2ccc(Cl)nc21 = 95

--- query ---
Need inhibition at 1 µM of `CCN1c2ncc(CCc3ccncc3)cc2C(=O)N(C)c2cccnc21` , thanks. 95
